viability, T/C by entry:
- Test system: 953936-095-R-J2-PDC spheroids with HUVEC/MSC, viability;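 note: spheroids exposed to compounds for seven days before read-out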
- assay-remarks: Anticancer human tumor 953936-095-R-J2-PDC patient-derived cervical squamous cell carcinoma cell line growth inhibition [PI3K]
- condition-parameters: second compound 0.1 µM; first compound 0.001 µM; hits give low values
- Description: Combinatorial screen of targeted agents with the PI3K inhibitors inavolisib, alpelisib, duvelisib, and copanlisib in multi-cell type tumor spheroids A high-throughput screen of multi-cell type tumor spheroids was designed to identify active combinations of targeted small molecules and PI3K pathway inhibitors. […] Compounds. […] If the clinical Cmax for an agent had not been determined, the highest concentration tested was 10 microM. […]
measured-property: viability, T/C

> print(dat)
                                   compound  measured
1  Cn1ncnc1[C@H]1c2n[nH]c(=O)c3cc(F)cc(c23)N[C@@H]1c1ccc(F)cc1 + COc1c(OCCCN2CCOCC2)ccc2c3n(c(=NC(=O)c4cnc(N)nc4)nc12)CCN3     18.1%
2  CC(=O)c1c(C)c2cnc(Nc3ccc(N4CCNCC4)cn3)nc2n(C2CCCC2)c1=O + CC(Nc1ccc2c(c1)OCCn1cc(N3C(=O)OCC3C(F)F)nc1-2)C(N)=O     59.6%
3  CC(C)n1nc(-c2ccc3oc(N)nc3c2)c2c(N)ncnc21 + COc1c(OCCCN2CCOCC2)ccc2c3n(c(=NC(=O)c4cnc(N)nc4)nc12)CCN3     15.9%
4  CC(=O)c1c(C)c2cnc(Nc3ccc(N4CCNCC4)cn3)nc2n(C2CCCC2)c1=O + COc1c(OCCCN2CCOCC2)ccc2c3n(c(=NC(=O)c4cnc(N)nc4)nc12)CCN3     17.4%
5  CC(=O)c1c(C)c2cnc(Nc3ccc(N4CCNCC4)cn3)nc2n(C2CCCC2)c1=O + Cc1nc(NC(=O)N2CCCC2C(N)=O)sc1-c1ccnc(C(C)(C)C(F)(F)F)c1     82.3%
6  CC(C)n1nc(-c2ccc3oc(N)nc3c2)c2c(N)ncnc21 + CC(Nc1ccc2c(c1)OCCn1cc(N3C(=O)OCC3C(F)F)nc1-2)C(N)=O     52.5%
